# EXPERIMENTAL_SYSTEM: Aldo-keto reductase family 1 member B1 (Rattus norvegicus)
# TEST_METHOD_NOTES: Inhibition of rat lens aldose reductase
Cut-off 1000 nM on IC50: below means 1, at or above means -1.

INSERT INTO results (item_smiles, label_class) VALUES
  ('O=c1cc(-c2ccc(O)cc2)oc2cc(O)cc(O)c12', -1),
  ('O=C(O)[C@H]1O[C@@H](Oc2cc(O)c3c(=O)cc(-c4ccc(O)cc4)oc3c2)[C@H](O)[C@@H](O)[C@@H]1O', -1),
  ('COC(=O)[C@H]1O[C@@H](Oc2cc(O)c3c(=O)cc(-c4ccc(O)cc4)oc3c2)[C@H](O)[C@@H](O)[C@@H]1O', -1),
  ('O=c1c(O)c(-c2ccc(O)cc2)oc2cc(O)cc(O)c12', -1),
  ('C[C@@H]1O[C@@H](Oc2c(-c3ccc(O)c(O)c3)oc3cc(O)cc(O)c3c2=O)[C@H](O)[C@H](O)[C@H]1O', 1);
